# experimentalProtocol: Pharmacokinetics of SN-38 and SN-38G after i.v. dosing of SN-38 in 40% SBECD
# Format: in vivo, Female Sprague-Dawley rats
# appliedConditions: female, Sprague-Dawley, rat, in vivo, iv, 0.65 mg/kg
# Method: Female Sprague-Dawley rats, 4 animals per group received i.v. injections of SN-38 (doses 0.65 mg/kg and 2 mg/kg) in 40% SBECD. The SN-38 solution for the treatment was prepared by the dilution of concentrated composition of the Example 1 with water. The blood plasma samples were collected from each group of animals, extracted using liquid extraction with cold methanol/acetonitrile mixture (1:1 v/v), and analyzed using a HPLC method with fluorescent detection. […]

{"compound": "CCc1c2c(nc3ccc(O)cc13)-c1cc3c(c(=O)n1C2)COC(=O)[C@]3(O)CC [SN-38]", "concentration at 0.75 h / ng/mL": 26.1}
